Origin of values: patent US20030144310A1

biological target: rNPFF-1 (Rattus norvegicus); construct: expressed in transfected cells; assay: Functional activity (EC50 and intrinsic activity relative to NPFF); type: cell-based; details: intrinsic activity as percentage of maximal response by NPFF
Sequence (Q9EP86 whole entry): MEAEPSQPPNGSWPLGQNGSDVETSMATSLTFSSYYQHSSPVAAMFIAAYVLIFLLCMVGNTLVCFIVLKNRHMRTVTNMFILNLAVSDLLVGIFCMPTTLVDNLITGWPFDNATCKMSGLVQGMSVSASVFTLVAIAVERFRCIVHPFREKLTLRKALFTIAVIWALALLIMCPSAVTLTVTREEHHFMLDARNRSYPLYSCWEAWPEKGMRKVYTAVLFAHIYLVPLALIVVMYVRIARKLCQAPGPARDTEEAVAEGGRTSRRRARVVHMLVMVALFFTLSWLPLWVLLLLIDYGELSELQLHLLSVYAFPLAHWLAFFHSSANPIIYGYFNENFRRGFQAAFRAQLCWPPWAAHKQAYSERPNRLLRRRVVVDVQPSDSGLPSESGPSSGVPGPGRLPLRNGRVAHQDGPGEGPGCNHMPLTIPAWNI
Classify by measured Functional Activity rNPFF-1 I.A. %: Satisfied if it is equal to or exceeds 80%, Not satisfied if it is smaller.

smilesString: N=C(N)NCCC[C@H](NS(=O)(=O)c1cccc2ccccc12)C(=O)N[C@@H](Cc1ccccc1)C(N)=O
groupLabel: Satisfied
//
smilesString: N=C(N)NCCC[C@H](NS(=O)(=O)c1ccc(F)c(Cl)c1)C(=O)N[C@@H](Cc1ccccc1)C(N)=O
groupLabel: Satisfied
//
smilesString: N=C(N)NCCC[C@H](NS(=O)(=O)c1ccc(F)cc1)C(=O)N[C@H](Cc1ccccc1)C(N)=O
groupLabel: Not satisfied

====

Each entry below carries its recorded EC50.
target: rNPFF-2 (Rattus norvegicus, UniProt Q9EQD2); construct: expressed in transfected cells; assay: Functional activity (EC50 and intrinsic activity relative to NPFF); type: cell-based; details: tested 0.001 nM to 3600 nM; read-out: Functional Activity rNPFF-2 EC50
Sequence (Q9EQD2 whole entry): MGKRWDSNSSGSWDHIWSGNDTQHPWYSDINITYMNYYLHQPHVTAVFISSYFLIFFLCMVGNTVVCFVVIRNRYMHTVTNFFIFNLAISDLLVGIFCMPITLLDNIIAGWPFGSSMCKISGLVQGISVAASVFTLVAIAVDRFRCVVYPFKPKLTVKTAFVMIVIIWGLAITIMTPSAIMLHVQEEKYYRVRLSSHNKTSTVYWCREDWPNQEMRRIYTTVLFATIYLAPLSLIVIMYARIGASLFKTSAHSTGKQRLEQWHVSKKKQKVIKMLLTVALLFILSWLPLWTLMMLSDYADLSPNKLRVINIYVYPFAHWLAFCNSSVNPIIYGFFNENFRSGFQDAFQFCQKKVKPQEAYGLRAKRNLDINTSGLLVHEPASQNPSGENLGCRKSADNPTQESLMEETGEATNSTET

smilesString: N=C(N)NCCC[C@H](NS(=O)(=O)c1cc(Cl)sc1Cl)C(=O)N[C@@H](Cc1ccccc1)C(N)=O
assayedSystem: rNPFF-2 (Rattus norvegicus, UniProt Q9EQD2)
EC50: > 10 µM

smilesString: N=C(N)NCCC[C@H](NS(=O)(=O)c1cccs1)C(=O)N[C@@H](Cc1ccccc1)C(N)=O
assayedSystem: rNPFF-2 (Rattus norvegicus, UniProt Q9EQD2)
EC50: > 3.16 µM

smilesString: N=C(N)NCCC[C@H](NS(=O)(=O)c1ccc(Cl)c(Cl)c1)C(=O)N[C@@H](Cc1ccccc1)C(N)=O
assayedSystem: rNPFF-2 (Rattus norvegicus, UniProt Q9EQD2)
EC50: > 3.16 µM

smilesString: COc1ccc(Br)cc1S(=O)(=O)N[C@@H](CCCNC(=N)N)C(=O)N[C@@H](Cc1ccccc1)C(N)=O
assayedSystem: rNPFF-2 (Rattus norvegicus, UniProt Q9EQD2)
EC50: > 3.16 µM

smilesString: N#Cc1ccccc1S(=O)(=O)N[C@@H](CCCNC(=N)N)C(=O)N[C@@H](Cc1ccccc1)C(N)=O
assayedSystem: rNPFF-2 (Rattus norvegicus, UniProt Q9EQD2)
EC50: > 3.16 µM
